Here's a roundup of Ki values tested on 5-hydroxytryptamine receptor 7 (Homo sapiens, UniProt P34969), taken from various published works.
Sequence (P34969 whole entry): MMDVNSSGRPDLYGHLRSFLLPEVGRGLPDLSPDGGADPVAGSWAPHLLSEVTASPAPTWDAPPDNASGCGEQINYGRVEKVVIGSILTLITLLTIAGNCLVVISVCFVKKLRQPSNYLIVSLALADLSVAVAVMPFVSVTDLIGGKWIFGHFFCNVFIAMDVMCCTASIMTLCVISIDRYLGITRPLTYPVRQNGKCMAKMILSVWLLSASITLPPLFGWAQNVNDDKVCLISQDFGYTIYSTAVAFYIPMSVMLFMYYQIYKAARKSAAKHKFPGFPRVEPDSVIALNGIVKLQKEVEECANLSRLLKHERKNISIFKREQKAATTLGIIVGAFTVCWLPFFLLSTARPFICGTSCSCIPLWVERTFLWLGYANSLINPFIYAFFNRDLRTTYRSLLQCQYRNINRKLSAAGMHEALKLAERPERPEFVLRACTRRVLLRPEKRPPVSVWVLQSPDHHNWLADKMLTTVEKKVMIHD

compound: C[C@H](Nc1cc(NCCc2ccccc2)ccn1)c1ccccc1
Ki: 3 nM

Could you share what Ki was measured for CNc1cc(-c2csc(N(C)C(=O)c3ccc(F)cc3)n2)ncn1 , tested on 5-hydroxytryptamine receptor 7 (Homo sapiens, UniProt P34969)?
> 10000 nM

Also, CCc1nc2c(N3CCNCC3)ccnc2n1Cc1cccc(Cl)c1 please.
8750 nM

###

Here's a roundup of Ki values tested on 5-hydroxytryptamine receptor 7 (Homo sapiens), taken from various published works.
Rule for this label: 1 (yes) means Ki is less than 50 nM; 0 (no) means Ki is at least 50 nM.

See these solved cases before continuing.
molecule: O=c1[nH]c2ccccc2n1CCCCCN1CCN(c2cccc(Cl)c2)CC1
group: 1 (yes)
--
molecule: NC(=O)[C@@H]1CCCN1C(=O)CCCCCN1CCN(c2cccc(Cl)c2)CC1
group: 0 (no)
--
molecule: CC(Nc1nc(N)nc(NCCc2cccnc2)n1)c1ccc(F)cc1 (racemic)
group: 0 (no)
--
molecule: O=S(=O)(c1ccccc1)C1(CCCN2CCC(c3ccccc3)CC2)CCC1
group: 1 (yes)
--
molecule: CCCC(Oc1cc(Cl)cc(Cl)c1)c1nc(N)nc(N2CCN(C)CC2)n1 (racemic)
group: 0 (no)

Check if Ki falls below 50 nM for COc1ccccc1N1CCN(CCCCNS(=O)(=O)c2ccc(C)cc2)CC1 .
1 (yes)

Also, CCN/C(=N\S(=O)(=O)c1cccc(Cl)c1)N1CC(CC)C=N1 (racemic) please.
0 (no)

Also, CSc1ccccc1OCCN1CCC(CNS(=O)(=O)c2cccc(Cl)c2)CC1 please.
0 (no)

###

Here's a roundup of pKi values tested on 5-hydroxytryptamine receptor 7 (Homo sapiens), taken from various published works.
The quantity pKi is defined as the negative base-10 logarithm of the molar concentration.

// solved cases for pKi follow
compound: O=C([C@@H]1CCCN1C(=O)CCCCCCN1CCN(c2ccccc2-c2ccccc2)CC1)N1CCCCC1
assayed-target: 5-hydroxytryptamine receptor 7 (Homo sapiens)
pKi: 7.82

compound: O=S(=O)(NCCCCN1CCC2CCCCC2C1)c1cccc2cccnc12 (stereo not given)
assayed-target: 5-hydroxytryptamine receptor 7 (Homo sapiens)
pKi: 5.90

compound: COc1ccccc1N1CCN(CCCCC(=O)NCc2ccccc2-c2ccc(F)cc2)CC1
assayed-target: 5-hydroxytryptamine receptor 7 (Homo sapiens)
pKi: 7.46

compound: COc1ccc(CNCCC(c2ccccc2)c2ccc3c(c2)OCO3)cc1 (stereo not given)
assayed-target: 5-hydroxytryptamine receptor 7 (Homo sapiens)
pKi: 4.85

compound: O=C(NC1CCN(CCOc2ccccc2-c2ccccc2)CC1)c1cccc(F)c1
assayed-target: 5-hydroxytryptamine receptor 7 (Homo sapiens)
pKi: 6.41

compound: O=C1Nc2ccccc2C12CCN(CCN1CCC(c3ccc(Cl)cc3)CC1)C2 (stereo not given)
assayed-target: 5-hydroxytryptamine receptor 7 (Homo sapiens)
pKi: 6.55

What does the record list as pKi for O=C(Nc1cccc(Cl)c1)NC1CCN(CCOc2ccccc2-c2ccccc2)CC1 ?
6.70

Also, NC(=O)[C@@H]1CCCN1C(=O)CCCCN1CCN(c2cccc(Cl)c2Cl)CC1 please.
6.95

Also, O=C1Nc2cc(F)ccc2C1CCCCN1CCN(c2cccc(Cl)c2)CC1 (stereo not given) please.
8.17

Also, O=C1Nc2ccccc2C12CCN(CCN1CCC(c3ccc(F)cc3)CC1)C2 (stereo not given) please.
6.56

###

Here's a roundup of Ki values tested on 5-hydroxytryptamine receptor 7 (Homo sapiens, UniProt P34969), taken from various published works.

What does the record list as Ki for CCOc1ccccc1N1CCN(CCC(=O)N2CCN(c3ccccc3)CC2)CC1 ?
80.3 nM

Also, CN1CCN(CCCN2C(=O)c3ccccc3/C=C\c3ccccc32)CC1 please.
> 100000 nM

Also, O=C([C@@H]1CCCN1C(=O)CCCCCCN1CCN(c2ccccc2-c2ccccc2)CC1)N1CCOCC1 please.
30 nM

Also, CC(C)c1ccccc1OCCN1CCC(NS(=O)(=O)c2cccc(Cl)c2)CC1 please.
8 nM

Also, O=C(CCN1CCN(c2cccc(Cl)c2)CC1)N1CCN(c2ccccc2)CC1 please.
32.7 nM

Also, Cl.O=S(=O)(c1cnc2ccccc2c1)N1CCC(CCN2CCN(c3ccc(Cl)cc3)CC2)CC1 please.
40 nM

Also, CC(C)(C)Cc1c(C#Cc2ccccc2F)sc(N)c1C(=O)c1ccc(Cl)cc1 please.
5700 nM

Also, CC(C)c1ccccc1N1CCN(CCCCCC(=O)N2Cc3ccccc3C[C@H]2C(=O)N2CCCCC2)CC1 please.
40 nM

Also, O=C(c1ccc(Cl)cc1)N1CCN(CCN2CCC3(C2)C(=O)Nc2ccccc23)CC1 (centres undefined) please.
529 nM

###

Here's a roundup of pKi values tested on 5-hydroxytryptamine receptor 7 (Homo sapiens, UniProt P34969), taken from various published works.
pKi: −log10 of the molar value.
Decision: pKi >= 7 yields t, all other cases yield f.

Is pKi at least 7? Consider CN(C)CC1=Cc2cn(S(=O)(=O)c3cccc4ccccc34)c3cccc(c23)O1
f

Also, O=c1[nH]c2ccccc2n1CCCN1CCN(c2ccccc2)CC1 please.
f

Also, COc1ccc(NC(=O)N2CCN(c3ccccc3OC)CC2)cc1N1CCN(C)CC1 please.
f

Also, CC(C)c1ccccc1OCCN1CCC(NC(=O)c2ccc3ccccc3n2)C1 (stereo not given) please.
f

Also, Fc1ccc(N2CCN(Cc3c[nH]c4ncccc34)CC2)cc1 please.
f

###

Here's a roundup of Ki values tested on 5-hydroxytryptamine receptor 7 (Homo sapiens), taken from various published works.
Unit nM implied. Number only.

// solved cases for Ki follow
compound: CN1CCN(c2ccc3[nH]nc(S(=O)(=O)c4ccccc4)c3c2)CC1
recorded-endpoint: Ki
value: 753
//
compound: CCOc1nc2c(c(=O)n(C)c(=O)n2C)n1CCCCN1CCN(c2ccccc2OC)CC1
recorded-endpoint: Ki
value: 54
//
compound: CCC(Oc1cc(Cl)cc(Cl)c1)c1nc(N)nc(N2CCN(C)CC2)n1 (racemic)
recorded-endpoint: Ki
value: 9480
//
compound: COc1ccccc1N1CCN(CCCCCCn2c(=O)[nH]c3ccccc32)CC1
recorded-endpoint: Ki
value: 78
//
compound: O=S(=O)(NC1CCN(CCOc2ccccc2-c2ccccc2)CC1)c1ccc(F)c(F)c1
recorded-endpoint: Ki
value: 7
//
compound: CC(C)c1ccccc1OCCN1CCC(NS(=O)(=O)c2ccc(N)cc2)CC1
recorded-endpoint: Ki
value: 39

What does the record list as Ki for CC(C)c1ccccc1N1CCN(CCCCCCC(=O)N2CCC[C@H]2C(=O)N2CCCCC2)CC1 ?
77

###

Here's a roundup of pKi values tested on 5-hydroxytryptamine receptor 7 (Homo sapiens, UniProt P34969), taken from various published works.
pKi: −log10 of the molar value.

// solved cases for pKi follow
compound: Cl.O=S(=O)(c1ccc2ccccc2c1)c1n[nH]c2ccc(NC3CCNCC3)cc12
pKi: < 5.30
--
compound: O=C1C2=C(CCCC2)C(=O)N1C1CCC(N2CCN(c3cccc(C(F)(F)F)c3)CC2)CC1 (configuration not stated)
pKi: < 5.30
--
compound: COc1ccc(/C=C2\NC(=O)N(CCCN3CCN(c4ncccn4)CC3)C2=O)cc1OC1CCCC1
pKi: < 6.00
--
compound: c1ccc2c(Cc3nc4ccc(N5CCNCC5)cc4[nH]3)cccc2c1
pKi: < 6.30
--
compound: c1cc(N2CCN(Cc3cnc4ccccc4n3)CC2)c2[nH]ncc2c1
pKi: < 6.00
--
compound: CCCCN1CCC(COC(=O)c2ccc(N)c(OC)c2)CC1
pKi: < 5.00
--
compound: Fc1ccccc1N1CCN(Cc2ccccc2-c2ccccc2)CC1
pKi: < 5.00
--
compound: Fc1cccc2c1nc(OCC1CCN(CCC(F)(F)F)CC1)c1cccnc12
pKi: < 5.00

What does the record list as pKi for COc1ccc(N2CC=C(c3ccc(Cl)c(Cl)c3)C2=O)cc1OCCN1CCCCC1 ?
< 5.50

Also, N#Cc1ccc(N2CCN(CCC(=O)c3csc4ccccc34)CC2)cc1 please.
< 4.00

Also, Nc1ccc(S(=O)(=O)c2cc(Br)nc(N3CCCC3)c2)cc1 please.
< 4.00

Also, CN1CCN(c2cccc3[nH]c(C(=O)c4cccc5ccccc45)nc23)CC1 please.
< 6.30

###

Here's a roundup of Ki values tested on UniProtKB P34969, taken from various published works.
The reply should read as a number followed by its unit.

// solved cases for Ki follow
compound: COc1ccccc1N1CCN(CCCCCN2C(=O)c3ccccc3S2(=O)=O)CC1
Ki: 125 nM
--
compound: O=C1c2ccccc2S(=O)(=O)N1CCCCCN1CCN(c2cccc(Cl)c2Cl)CC1
Ki: 149 nM
--
compound: CC1(c2ccc(F)cc2)NC(=O)N(CC(O)CN2CCN(c3ccc(F)cc3F)CC2)C1=O (stereo unspecified)
Ki: 1190 nM
--
compound: CCCN(CCC)[C@H]1COc2c(cccc2-c2ccccc2)C1
Ki: 3.38 nM

What does the record list as Ki for O=S(=O)(NCCCCN1CCc2sccc2C1)c1ccc2cccnc2c1 ?
334 nM

Also, O=S(=O)(NCCCCN1CCN(c2cccc(Cl)c2)CC1)c1cccc2ccccc12 please.
36 nM
